# test_description: inhibitors of TNFa-induced NFkB p65 translocation, primary screen, imaging, HUVEC, MLSMR starter and 10KST1 sets (AID 438);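 further: compound added about 3h40 before a 20 min TNFalpha stimulation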
# test_context: HUVEC TNFa-induced p65 nuclear translocation; measured here: nuclei count (cytotoxicity indicator), at 2.08 µM
Returns Condition met if the recorded cell count is greater than or equal to 400, and Condition not met otherwise.

Please tell me: is the molecule COc1cccc(N2CCN(CC(=O)c3c[nH]c4ccc(OC)cc34)CC2C)c1 (centres undefined) at or over 400 in terms of cell count?
Condition met

Say whether "Cc1ccccc1NS(=O)(=O)c1ccc(NC(=O)c2ccco2)cc1" shows cell count of 400 or more.
Condition not met

Check the entry "Nc1nc(CSCc2ccccc2)nc(N2CCOCC2)n1" : does cell count equal or exceed 400?
Condition met

Evaluate "CCCc1cc(=O)oc2cc(C)cc(OC(=O)c3ccco3)c12" : cell count at minimum 400?
Condition not met

Record "CCS(=O)(=O)c1nc2ccccc2n1CC(=O)N1CCCCC1" ; criterion: cell count no lower than 400. Met?
Condition met

State whether the measured cell count reaches 400, counting equality as reaching it, for O=c1[nH]c2cc3c(cc2cc1C(c1nnnn1C1CCCCC1)N1CCSCC1)OCCO3 (centres undefined)
Condition met

API: above_or_equal(metric=cell count, cutoff=400) for item "CCCCc1cc2c(c(NC(C)=O)n1)c(=O)oc1ccccc12"
Condition met

Determine whether measured cell count meets or exceeds 400 for "O=C(CCn1c(=O)oc2ccccc21)NCCN1CCOCC1"
Condition met

Say whether "CC(=O)c1ccc(N2CCN(C(=O)c3cc(C)on3)CC2)cc1" shows cell count of 400 or more.
Condition not met

Please check the record COCCCNC(=O)CC1Oc2ccccc2NC1=O (centres undefined) and state if its cell count is at or above 400.
Condition met

Check this molecule for cell count at or above 400: "CCC(=O)N1CCc2cc(Br)cc(S(=O)(=O)N3CCCCCC3)c21"
Condition met

Given the entry "CCOC(=O)N1CCC(NC(=O)c2ccc3c(c2)N(C)CCS3)CC1" , answer whether its cell count meets or surpasses 400.
Condition not met

Is reported cell count greater than or equal to 400 here: COC(=O)C(C)C1Sc2ccccc2NC1=O (centres undefined)
Condition not met

// inclusive: cell count at least 400? input: "O=C(CSc1nnnn1-c1ccccc1)Nc1ccc(Cl)cc1"
Condition met

Could you please find out whether "CCOc1nc(NCCC2=CCCCC2)nc(N2CCOCC2)n1" has cell count that meets 400 or exceeds it?
Condition met

hey, is cell count for this one >= 400? CCCCCCn1c(CN2CCCC(C)C2)nc2c1c(=O)n(C)c(=O)n2C (centres undefined)
Condition not met

Could you tell me if the measured cell count of COc1ccccc1N1CCN(C(CNS(=O)(=O)c2cc(F)ccc2F)c2cccnc2)CC1 (centres undefined) reaches 400 or more?
Condition met

Given "Cc1occc1C(=O)N1CCN(c2ncccn2)CC1" , state whether its cell count is at least 400.
Condition not met

Textbook exercise: given the entry "COc1ccc(CC(=O)Nc2cc(Cl)ccc2O)cc1" , state whether its cell count is greater than or equal to 400.
Condition met

Determine whether measured cell count meets or exceeds 400 for "CCOC(=O)CSc1nnc(-c2cccnc2)n1Cc1ccccc1"
Condition met

Identify whether the reported cell count of the following molecule is 400 or greater: "O=C(CCN1C(=O)c2ccccc2C1=O)Nc1ccc(F)cc1"
Condition met

Record COc1ccc(NC(=O)CC2Oc3ccccc3NC2=O)cc1 (centres undefined) ; criterion: cell count no lower than 400. Met?
Condition met

Kindly determine if cell count recorded for "Nc1c(C(=O)NCc2ccco2)nnn1Cc1ccccc1" is above or exactly 400.
Condition not met
